# METHOD DESCRIPTION: In Vitro Microsome Stability Assay (human)
# Assay type: in vitro ADME
# EXPERIMENTAL CONDITIONS: human liver microsomes, 30 min w/ NADPH
PARAMETER MEASURED: Liver Microsome Stability-% Left after 30 min w/ NADPH (%) Human

{"COMPOUND": "COc1ccc(N2CCN(S(=O)(=O)N3CCCN(CC4CCCCC4)CCCN(S(=O)(=O)c4ccc(N(C)C)cc4)C[C@H](C)C3)CC2)cc1F", "RESULT NUMBER": 13.3}
{"COMPOUND": "C[C@H]1CN(S(=O)(=O)c2ccc(N(C)C)cc2)CCCN(CC2=CCCCC2)CCCN(S(=O)(=O)N2CCc3cc(Cl)ccc3C2)C1", "RESULT NUMBER": 9.36}
{"COMPOUND": "C[C@H]1CN(S(=O)(=O)c2ccc(N(C)C)cc2)CCCN(CC2=CCCC2)CCCN(S(=O)(=O)N2CCc3cc(Cl)ccc3C2)C1", "RESULT NUMBER": 11.8}

1. CN(C)c1ccc(S(=O)(=O)N2CCCN(CC3CCCCC3)CCCN(S(=O)(=O)N3CCc4cc(Cl)ccc4C3)C[C@H]3CC[C@@H]32)cc1
2. C[C@H]1CN(S(=O)(=O)c2ccc(N(C)C)cc2)CCCN(C(=O)OCc2ccccc2)CCCN(S(=O)(=O)N2CCc3cc(Cl)ccc3C2)C1
Query :: Hi, I'm comparing 1 with 2 and wondering which one has the bigger number for Liver Microsome Stability-% Left after 30 min w/ NADPH (%) Human. Any idea? # answer = label of selected item
Result :: 2
(2: 31.6%, 1: 1.77%)

P. COc1cccc(N2CCN(S(=O)(=O)N3CCCN(CC4CCCCC4)CCCN(S(=O)(=O)c4ccc(N(C)C)cc4)C[C@H](C)C3)CC2)c1
Q. CC1Cc2ccccc2CN1S(=O)(=O)N1CCCN(CC2CCCCC2)CCCN(S(=O)(=O)c2ccc(N(C)C)cc2)C[C@H](C)C1 (some centres unmarked)
R. C[C@H]1CN(S(=O)(=O)c2ccc(N(C)C)cc2)CCCN(Cc2ccon2)CCCN(S(=O)(=O)N2CCc3cc(Cl)ccc3C2)C1
S. CN(C)c1ccc(S(=O)(=O)N2CCCN(CC3CCCCC3)CCCN(S(=O)(=O)N3CCCCC3)CC2)cc1
T. CC(C)CCN1CCCN(S(=O)(=O)c2ccc(N(C)C)cc2)C[C@H](C)CN(S(=O)(=O)N2CCc3cc(Cl)ccc3C2)CCC1
Query :: Please list these compounds in decreasing order of Liver Microsome Stability-% Left after 30 min w/ NADPH (%) Human. Use the labels to give the requested order.
Result :: P, R, T, Q, S
(P: 32.8%, R: 18.9%, T: 5.02%, Q: 3.46%, S: 0.26%)

1. C=C1CN(S(=O)(=O)c2ccc(C)cc2)CCCN(CC2CCCCC2)CC(C)CN(S(=O)(=O)c2ccc(C)cc2)C1 (centres unmarked)
2. COc1cc(F)ccc1C1CN(S(=O)(=O)N2CCCN(CC3CCCCC3)CCCN(S(=O)(=O)c3ccc(N(C)C)cc3)C[C@H](C)C2)C1
Query :: Of 1 versus 2 , which is the one with smaller reported Liver Microsome Stability-% Left after 30 min w/ NADPH (%) Human? # answer = label of selected item
Result :: 1
(1: 0.35%, 2: 24.0%)

I. C[C@H]1CN(S(=O)(=O)c2ccc(N(C)C)cc2)CCCN(CC2CCCCC2)CCCN(S(=O)(=O)N2CCN(c3ccccc3Cl)CC2)C1
II. C[C@H]1CN(S(=O)(=O)c2ccc(N(C)C)cc2)CCCN(CC2CCCCC2)CCCN(S(=O)(=O)N2CCN(c3ccccc3C#N)CC2)C1
III. CCc1ccc(CNS(=O)(=O)N2CCCN(CC3CCCCC3)CCCN(S(=O)(=O)c3ccc(N(C)C)cc3)C[C@H](C)C2)cc1
IV. COc1ccc(N2CCN(S(=O)(=O)N3CCCN(CC4CCCCC4)CCCN(S(=O)(=O)c4ccc(N(C)C)cc4)C[C@H](C)C3)CC2)cc1
Query :: Reorder the items by Liver Microsome Stability-% Left after 30 min w/ NADPH (%) Human, least to greatest. Use the labels to give the requested order.
Result :: III, IV, II, I
